- EXPERIMENT SUMMARY: blockers of bacterial quorum-sensing reporter fluorescence – flow cytometry, SAR analogs, SAR follow-up (AID 1014);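 note: Staphylococcus aureus RN6390 with RNAIII-GFP reporter stimulated by AIP; bacteria incubated with compound for 3 hours at 37 °C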
- RECORDED CONDITIONS: at 20 µM
Activity calls are given as the source filed them. Cut-off read from the data, not from the text of the source: active = inhibition of mean fluorescence above about 33%; inactive = the rest.
Assign a class; possible classes are 1 for active, -1 for inactive

In [3]: df
Out[3]:
                                   molecule  discrete_label
0  CC1CCCN(CCC(=O)Nc2ccc3c(c2)OCO3)C1 (stereo unspecified)              -1
1  COc1ccccc1N1CCN(C(CNC(=O)c2cccc(Cl)c2)c2cccnc2)CC1 (stereo unspecified)               1
2  COc1ccc(CC(=O)Nc2oc(-c3ccccc3)c(-c3ccccc3)c2C#N)cc1OC              -1

Assay result, entry NC1=NC(=O)CC(C(=O)Nc2ccccc2)S1 (stereo unspecified) — outcome? -1

Assay result, entry O=C(NC1CCCC1)C(c1cc2c(cc1[N+](=O)[O-])OCO2)N1CCC(Cc2ccccc2)CC1 (stereo unspecified) — outcome? -1

Assay result, entry CC1CCCN(C(C(=O)NC2CCCC2)c2cc3c(cc2[N+](=O)[O-])OCO3)C1 (stereo unspecified) — outcome? -1

Assay result, entry O=C(O)c1cc([N+](=O)[O-])cc([N+](=O)[O-])c1Nc1ccc(Cl)cc1 — outcome? -1

Assay result, entry O=C(NCC(c1cccnc1)N1CCN(c2ccccc2F)CC1)c1ccccc1 (stereo unspecified) — outcome? -1
